# Tested on: HUVEC/MSC spheroids viability
# Assay protocol: Human HUVEC/MSC cell line growth inhibition [KRAS2];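 further: percent of DMSO vehicle control luminescence so 100% = untreated viability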
# Condition description: second compound 0.316 µM; first compound 0.003 µM; stronger effect = lower value
Would you kindly list viability, T/C for each of these compounds?
One number for each entry, in %.

The following compounds have reported results that may help.
Compound	Property name	Quantitative readout
CC(=O)Nc1cccc(-n2c(=O)n(C3CC3)c(=O)c3c(Nc4ccc(I)cc4F)n(C)c(=O)c(C)c32)c1 + COc1cc2nc(C)nc(NC(C)c3cc(N)cc(C(F)(F)F)c3)c2cc1OC1CCOC1	viability, T/C	82.6
CC(=O)Nc1cccc(-n2c(=O)n(C3CC3)c(=O)c3c(Nc4ccc(I)cc4F)n(C)c(=O)c(C)c32)c1 + CNCc1ccccc1-c1csc(C(C)Nc2nc(C)nc3cc(OC)c(OC)cc23)c1	viability, T/C	85.9
CC(=O)Nc1cccc(-n2c(=O)n(C3CC3)c(=O)c3c(Nc4ccc(I)cc4F)n(C)c(=O)c(C)c32)c1 + CC1OCC2(CCN(c3cnc(Sc4ccnc(N)c4Cl)c(N)n3)CC2)C1N	viability, T/C	81.8

# input for lookup
Entry CC(=O)Nc1cccc(-n2c(=O)n(C3CC3)c(=O)c3c(Nc4ccc(I)cc4F)n(C)c(=O)c(C)c32)c1 + C=CC(=O)N1CCN(c2nc(=O)n(-c3c(C)ccnc3C(C)C)c3nc(-c4c(O)cccc4F)c(F)cc23)C(C)C1 ; viability, T/C = 119

Origin of measurements: PubChem BioAssay AID2060912
